Provide the recorded cAMP Emax (1.0% HSA) for the entries that follow.
target: human GLP-1 receptor (human, UniProt P43220 24-463); assay: cell-based or functional assay
Reply with just the number (in %).

Q: Item YXEGTXTSDYXIXLDXIAQXKFIXXLIKGGPSSGAPPPS (Y-Aib-EGT-αMeF(2F)-TSDY-Aib-I-αMeL-LD-Orn-IAQ-Aib-K((2-[2-(2-Amino-ethoxy)-ethoxy]-acetyl)-(γ-Glu)-(10-(4-carboxyphenoxy)decanoyl))FI-(D-Glu)-αMeY-LIK((2-[2-(2-Amino-ethoxy)-ethoxy]-acetyl)-(γ-Glu)-(10-(4-carboxyphenoxy)decanoyl))GGPSSGAPPPS-NH2) [Example 376] : provide cAMP Emax (1.0% HSA)
A: 121

Q: State its cAMP Emax (1.0% HSA) for this binder: YXEGTXTSDXXIXLDXQAQXKFIXXLIEGGPSSGAPPPSK (Y-Aib-EGT-αMeF(2F)-TSD-4Pal-Aib-I-αMeL-LD-Orn-QAQ-Aib-K((2-[2-(2-Amino-ethoxy)-ethoxy]-acetyl)2-(γ-Glu)-CO-(CH2)12-CO2H)FI-(D-Glu)-αMeY-LIEGGPSSGAPPPSK((2-[2-(2-Amino-ethoxy)-ethoxy]-acetyl)2-(γ-Glu)-CO-(CH2)12-CO2H)-NH2) [Example 489]
A: 98.7

Q: Hello, please tell me recorded cAMP Emax (1.0% HSA) for this one: YXEGTXTSDYXIXLDXKAQXKFIXXLIXGGPSSGAPPPS (Y-Aib-EGT-αMeF(2F)-TSDY-Aib-I-αMeL-LD-Orn-K((2-[2-(2-Amino-ethoxy)-ethoxy]-acetyl)2-(γ-Glu)-(10-(4-carboxyphenoxy)decanoyl))AQ-Aib-K((2-[2-(2-Amino-ethoxy)-ethoxy]-acetyl)2-(γ-Glu)-(10-(4-carboxyphenoxy)decanoyl))FI-(D-Glu)-αMeY-LI-Orn-GGPSSGAPPPS-NH2) [Example 409]
A: 97.7

Q: Using the record for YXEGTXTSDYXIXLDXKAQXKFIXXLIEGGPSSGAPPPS (Y-Aib-EGT-αMeF(2F)-TSDY-Aib-I-αMeL-LD-Orn-K((2-[2-(2-Amino-ethoxy)-ethoxy]-acetyl)2-CO-(CH2)12-CO2H)AQ-Aib-K((2-[2-(2-Amino-ethoxy)-ethoxy]-acetyl)2-CO-(CH2)12-CO2H)FI-(D-Glu)-αMeY-LIEGGPSSGAPPPS-NH2) [Example 385] , state its measured cAMP Emax (1.0% HSA).
A: 112

Q: Output cAMP Emax (1.0% HSA) of YXEGTXTSDYXIXLDXIAQXKFIXXLIEGGPSSGAPPPSK (Y-Aib-EGT-αMeF(2F)-TSDY-Aib-I-αMeL-LD-Orn-IAQ-Aib-K((2-[2-(2-Amino-ethoxy)-ethoxy]-acetyl)-(γ-Glu)-(10-(4-carboxyphenoxy)decanoyl))FI-(D-Glu)-αMeY-LIEGGPSSGAPPPSK((2-[2-(2-Amino-ethoxy)-ethoxy]-acetyl)-(γ-Glu)-(10-(4-carboxyphenoxy)decanoyl))-NH2) [Example 377]
A: 110

Q: # return recorded cAMP Emax (1.0% HSA) for entry YXEGTXTSDXXIXLDXKAQXXFIXXLIEGGPSSGAPPPSK (Y-Aib-EGT-αMeF(2F)-TSD-4Pal-Aib-I-αMeL-LD-Orn-K((2-[2-(2-Amino-ethoxy)-ethoxy]-acetyl)3-(γ Glu)-CO-(CH2)10CH3)AQ-Aib-Orn-FI-(D-Glu)-αMeY-LIEGGPSSGAPPPSK((2-[2-(2-Amino-ethoxy)-ethoxy]-acetyl)3-(γ-Glu)-CO-(CH2)10-CH3)-NH2) [Example 435]
A: 97.8
